Target: PD-1/PD-L1 (Homo sapiens (Human), UniProt Q9NZQ7)
Sequence (Q9NZQ7 19-238): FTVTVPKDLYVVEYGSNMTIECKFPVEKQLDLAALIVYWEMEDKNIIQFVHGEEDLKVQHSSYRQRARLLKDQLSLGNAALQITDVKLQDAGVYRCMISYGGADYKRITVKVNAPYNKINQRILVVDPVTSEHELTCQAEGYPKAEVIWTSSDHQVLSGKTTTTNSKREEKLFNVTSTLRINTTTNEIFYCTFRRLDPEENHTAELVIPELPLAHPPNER
Assay: PD-1/PD-L1 Binding Assay (Alphascreen)
Conditions: numeric values
Experimental: PD-1/PD-L1 Binding Assay (Alphascreen) The assays were conducted in a standard black 384-well polystyrene plate with a final volume of 20 μL. Inhibitors were first serially diluted in DMSO and then added to the plate wells before the addition of other reaction components. The final concentration of DMSO in the assay was 1%. […] Read the AlphaLISA signal value using the Envision Reader. […]
parameter: IC50 (nM)

[I] Cc1c(-c2nc3cc(CN(C)CCO)c(OC(F)F)cc3o2)cccc1-c1cccc(-c2nc3cc(CN4CCC[C@H]4C(=O)O)c(OC(F)F)cc3o2)c1C [Example 17]
[II] Cc1c(-c2nc3cc(CN4CCC4)c(OC(F)F)cc3o2)cccc1-c1cccc(-c2nc3cc(CN4CCC[C@H]4C(=O)O)c(OC(F)F)cc3o2)c1C [Example 8]
Query: Smaller IC50 value? Options are I and II Select an item and report its label.
Result: II

[I] Cc1c(-c2nc3cc(CN4CCC[C@@H]4C(=O)O)c(OC(F)F)cc3o2)cccc1-c1cccc(-c2nc3cc(CN4CCC(C)C4)cc(C(F)(F)F)c3o2)c1C (stereo partly drawn) [Example 90]
[II] Cc1c(-c2ccc(CN3CCCC3)c(C#N)c2)cccc1-c1cccc(-c2nc3cc(CN4CCC[C@H]4C(=O)O)c(OC(F)F)cc3o2)c1C [Example 245]
Query: Consider entries I and II . Which has the numerically lower IC50? Pick one and reply with its label.
Result: I

====

Biological target: PD-1/PD-L1 (Homo sapiens (Human))
Experiment: PD-1/PD-L1 Binding Assay (Alphascreen)
Conditions: range symbols
Protocol: PD-1/PD-L1 Binding Assay (Alphascreen) The assays were conducted in a standard black 384-well polystyrene plate with a final volume of 20 μL. Inhibitors were first serially diluted in DMSO and then added to the plate wells before the addition of other reaction components. The final concentration of DMSO in the assay was 1%. […] Read the AlphaLISA signal value using the Envision Reader. […]
Listed compounds paired with reported IC50

# count of solved cases: 2
>>> print(df.to_string())
                              record_smiles  parameter  experimental_value
0  CC(=O)NCCNCc1cc(Cl)c(OCc2cccc(-c3cccc(-c4nc5cc(CN6CCC[C@H]6C(=O)O)c(OC(F)F)cc5o4)c3C)c2C)cc1OCc1cccc(C#N)c1       IC50         0.1 to 5 nM
1  Cc1c(-c2nc3cc(CN4CCC[C@@H]4C(=O)O)c(OC(F)F)cc3o2)cccc1-c1cccc(-c2nc3cc(CN4CC(C)(C)C4)c(OC(F)F)cc3o2)c1C#N       IC50         0.1 to 5 nM

The record that follows has no IC50 shown yet.
Query: Would you mind telling me what IC50 value was observed for Cc1c(-c2nc3cc(CN4CCC[C@H]4C(=O)O)c(OC(F)F)cc3o2)cccc1-c1cccc(-c2nc3cc(CNCc4cn(C)cn4)cc(C#N)c3o2)c1C ?
Result: 0.1 to 5 nM

====

experiment: Pharmacokinetic Assay, single oral dose 5 mg/kg (Table 12); assay type: in vivo; details: mouse; plasma concentration, C57 female mice, single oral dose 5 mg/kg, 0.5 h
parameter: concentration at 0.5 h (ng/mL)

molecule	experimental value
Cc1c(-c2nc3cc(CN(C)[C@@H]4CCC[C@H]4O)c(OC(F)F)cc3o2)cccc1-c1cccc(-c2nc3cc(CN4CCC[C@H]4C(=O)O)c(OC(F)F)cc3o2)c1C [Example 57]	27.1
Cc1c(-c2nc3c(o2)CCN(CC#N)C3)cccc1-c1cccc(-c2nc3cc(CN4CCC[C@H]4C(=O)O)c(OC(F)F)cc3o2)c1C [Example 195]	256
Cc1c(-c2nc3c(o2)CCC3)cccc1-c1cccc(-c2nc3cc(CN4CCC[C@H]4C(=O)O)c(OC(F)F)cc3o2)c1C [Example 204]	740
Cc1c(-c2nc3cc(CN4CC(C)C4)c(OC(F)F)cc3o2)cccc1-c1cccc(-c2nc3cc(CN4CCC[C@H]4C(=O)O)c(OC(F)F)cc3o2)c1C [Example 56]	19.9
Cc1c(-c2nc3cc(CN4CCC[C@H]4C(=O)O)c(OC(F)F)cc3o2)cccc1-c1cccc(-c2ccc(CN3CCCC3)s2)c1C [Example 280]	33.6

[P] Cc1c(-c2nc3cc(CN4CC(C)(C)C4)c(OC(F)F)cc3o2)cccc1-c1cccc(-c2nc3cc(CN4CCC[C@H]4C(=O)O)c(OC(F)F)cc3o2)c1C [Example 34]
[Q] Cc1c(-c2nc3cc(CN4C[C@@H](F)[C@H](F)C4)c(OC(F)F)cc3o2)cccc1-c1cccc(-c2nc3cc(CN4CCC[C@H]4C(=O)O)c(OC(F)F)cc3o2)c1C [Example 18]
[R] Cc1c(-c2ccc(CN3CCCC3)c(C(F)(F)F)c2)cccc1-c1cccc(-c2nc3cc(CN4CCC[C@H]4C(=O)O)c(OC(F)F)cc3o2)c1C [Example 233]
Query: Reorder the items by concentration at 0.5 h, least to greatest. Please respond with the labels ordered as the question requires.
Result: P, R, Q

[1] Cc1c(-c2nc3cc(CN4CCC[C@H]4C(=O)O)c(OC(F)F)cc3o2)cccc1-c1cccc(-c2nc3cc(CN4CC(C)(C)C4)cc(C#N)c3o2)c1C [Example 103]
[2] Cc1c(-c2ccc(CN3CCC(F)C3)cc2)cccc1-c1cccc(-c2nc3cc(CN4CCC[C@H]4C(=O)O)c(OC(F)F)cc3o2)c1C (stereo partly drawn) [Example 242]
[3] CCS(=O)(=O)N1CCc2oc(-c3cccc(-c4cccc(-c5nc6cc(CN7CCC[C@H]7C(=O)O)c(OC(F)F)cc6o5)c4C)c3C)nc2C1 [Example 197]
Query: Put the entries in order of concentration at 0.5 h, starting with the largest number. Please list the labels according to the requested order.
Result: 3, 2, 1
(3: 527 ng/mL, 2: 90.4 ng/mL, 1: 48.9 ng/mL)
